- Test system: EGFR-Wt
- TEST: MaMTH EGFR-interactor screen, lentiviral preys against EGFR-wildtype bait (interaction score)
- Format: cell-based, human
- MEASUREMENT PARAMETERS: ratio of EGFR-Wt mean to EGFR-L858R mean interaction score
METRIC: Wt/L858R

1. SLA2 (protein, UniProt Q9H6Q3 2-261, looked up) Src-like-adapter 2: GSLPSRRKSLPSPSLSSSVQGQGPVTMEAERSKATAVALGSFPAGGPAELSLRLGEPLTIVSEDGDWWTVLSEVSGREYNIPSVHVAKVSHGWLYEGLSREKAEELLLLPGNPGGAFLIRESQTRRGSYSLSVRLSRPASWDRIRHYRIHCLDNGWLYISPRLTFPSLQALVDHYSELADDICCLLKEPCVLQRAGPLPGKDIPLPVTVQRTPLNWKELDSSLLFSEAATGEESLLSEGLRESLSFYISLNDEAVSLDDA :: 0.71
2. GRAP2 (protein, UniProt O75791 1-330, looked up) GRB2-related adapter protein 2: MEAVAKFDFTASGEDELSFHTGDVLKILSNQEEWFKAELGSQEGYVPKNFIDIQFPKWFHEGLSRHQAENLLMGKEVGFFIIRASQSSPGDFSISVRHEDDVQHFKVMRDNKGNYFLWTEKFPSLNKLVDYYRTNSISRQKQIFLRDRTREDQGHRGNSLDRRSQGGPHLSGAVGEEIRPSMNRKLSDHPPTLPLQQHQHQPQPPQYAPAPQQLQQPPQQRYLQHHHFHQERRGGSLDINDGHCGTGLGSEMNAALMHRRHTDPVQLQAAGRVRWARALYDFEALEDDELGFHSGEVVEVLDSSNPSWWTGRLHNKLGLFPANYVAPMTR :: 0.22

Next molecule, Wt/L858R to be filled in.
## Task State its Wt/L858R for this molecule: CISH (protein, UniProt Q9NSE2 1-258, looked up) Cytokine-inducible …: MVLCVQGPRPLLAVERTGQRPLWAPSLELPKPVMQPLPAGAFLEEVAEGTPAQTESEPKVLDPEEDLLCIAKTFSYLRESGWYWGSITASEARQHLQKMPEGTFLVRDSTHPSYLFTLSVKTTRGPTNVRIEYADSSFRLDSNCLSRPRILAFPDVVSLVQHYVASCTADTRSDSPDPAPTPALPMPKEDAPSDPALPAPPPATAVHLKLVQPFVRRSSARSLQHLCRLVINRLVADVDCLPLPRRMADYLRQYPFQL
## Result 0.49
